Numbers sourced from paper PMC6776562.

# TEST_DETAILS: In vitro metabolic stability in mouse liver microsomes
# Assay type: in vitro ADME
REPORTED_PROPERTY: half-life
Form entry: enter the amount, then its unit.

Need half-life, item O=C(c1ccc(F)cc1)C1CCN(CCn2c(=O)[nH]c3ccccc3c2=O)CC1 [Ketanserin, reference compound]
17.5 min

* * *

# TEST_DETAILS: In vitro metabolic stability in human liver microsomes
# Type: in vitro ADME
REPORTED_PROPERTY: half-life (min)
Give bare numbers, in min.

Need half-life, item O=C(c1ccc(F)cc1)C1CCN(CCn2c(=O)[nH]c3ccccc3c2=O)CC1 [Ketanserin, reference compound]
44.1

* * *

# TEST_DETAILS: In vitro blood-brain barrier permeability assay
# Format: in vitro ADME
# MEASUREMENT_SETUP: dog, MDCK-MDR1, B-A, 37 °C, MDR-MDCK
REPORTED_PROPERTY: Papp B→A at 90 min, 5 μmol/L (×10⁻⁶ cm/s)
Numbers only, in ×10⁻⁶ cm/s.

Need Papp B→A at 90 min, 5 μmol/L, item COCCc1ccc(OCC(O)CNC(C)C)cc1 (stereo not shown) [Metoprolol, reference compound]
28.6

* * *

# TEST_DETAILS: In vitro metabolic stability in human liver microsomes
# Format: in vitro ADME
REPORTED_PROPERTY: CLint scaled (mL/min/kg)
One number for each entry, in mL/min/kg.

Need CLint scaled, item O=C(c1ccc(F)cc1)C1CCN(CCn2c(=O)[nH]c3ccccc3c2=O)CC1 [Ketanserin, reference compound]
39.5

* * *

# TEST_DETAILS: In vitro metabolic stability in mouse liver microsomes
# Assay type: in vitro ADME
REPORTED_PROPERTY: CLint scaled (mL/min/kg)
Answers are plain numbers, in mL/min/kg.

Need CLint scaled, item O=C(c1ccc(F)cc1)C1CCN(CCn2c(=O)[nH]c3ccccc3c2=O)CC1 [Ketanserin, reference compound]
312
